What glycan array binding signal (z-score) was measured for each of the following?
Target System: Neu5Ac(a2-3)Gal(b1-4)[Fuc(a1-3)]GlcNAc(b1-3)GalNAc
Assay Details: glycan array binding signal (z-score within array); higher = stronger binding
Reported Conditions: glycan notation: IUPAC condensed, linker removed
The entries come from a sample that favours the strongest signals as a whole.
Answers are plain numbers.

Request: For the binder shown here, PEB3 (Campylobacter jejuni), Q0PBL7 (protein) MKKIITLFGACALAFSMANADVNLYGPGGPHTALKDIANKYSEKTGVKVNVNFGPQATWFEKAKKDADILFGASDQSALAIASDFGKDFNVSKIKPLYFREAIILTQKGNPLKIKGLKDLANKKVRIVVPEGAGKSNTSGTGVWEDMIGRTQDIKTIQNFRNNIVAFVPNSGSARKLFAQDQADAWITWIDWSKSNPDIGTAVAIEKDLVVYRTFNVIAKEGASKETQDFIAYLSSKEAKEIFKKYGWRE , give the reported glycan array binding signal (z-score).
Result: 4.53

Request: I would be grateful if you could share the reported glycan array binding signal (z-score) for RBMC1 (Vibrio cholerae) (protein) QQSQRVVTADNLMYLRSGFAIDAIGTTVNNLVGGPVQGTNGGVLRAPIALDQLQSVEVTSGLYNWGGYHIVAIKFTMKDGSSVLLGSTHYASNKKVETYTVPQGKRIKQINVWTGGWLVEGFQFVY .
Result: -0.194

Further cases:
Request: So what's the measured glycan array binding signal (z-score) for this one? rPitB (Streptococcus pneumoniae), A0A0I7U739 (protein) MSEIEIINAKKIYHDVPVIENLNITIPKGSLFTLLGASGCGKTTLLRMIAGFNSIKDGEFYFDDTKINNMEPSKRNIGLVFQNYAIFPHLTVRDNVAFGLMQKKVPKEELIQQTNKYLELMQIAQYAD
Result: 4.13
